- Target: T1, cynomolgus Gal10-His (WGS isoform) (cynomolgus)
- T1 construct: also called cynomolgus antigen
- Experimental details: SPR Biacore 3000, hFab on cynomolgus Gal10-His (WGS) captured by anti-His CM5
Field: Amplitude R0. Provide a value for each of the binders that follow.
One number for each entry, in RU.

1) g7B07 (human Fab) (Fab, V domains shown, Human Fab backbone; their format is not certain; also called g7B07-hFab; germlined 7B07) VH: EVQLLESGGGLVQPGGSLRLSCAASGFTFRSYDMSWVRQAPGKGLEWVSAIKNGGGITYYADSVKGRFTISRDNSKNTLYLQMNSLRAEDTAVYYCATTHGIGTLGFGSWGQGTLVTVSS VL: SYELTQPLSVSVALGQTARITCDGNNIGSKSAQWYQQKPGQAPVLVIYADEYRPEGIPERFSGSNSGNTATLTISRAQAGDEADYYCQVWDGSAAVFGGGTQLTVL
64
2) g24F02 (human Fab) (Fab, V domains shown, Human Fab backbone (human CH1, human lambda CL); also called germlined 24F02) VH: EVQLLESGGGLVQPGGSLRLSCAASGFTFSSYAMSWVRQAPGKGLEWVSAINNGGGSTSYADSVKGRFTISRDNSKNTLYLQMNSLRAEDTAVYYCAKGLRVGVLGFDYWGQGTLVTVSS VL: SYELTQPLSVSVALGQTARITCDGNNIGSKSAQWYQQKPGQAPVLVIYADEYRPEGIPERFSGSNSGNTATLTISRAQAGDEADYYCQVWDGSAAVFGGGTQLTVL
566
3) g23H09 (Fab) (Fab, V domains shown, same VH/VL) VH: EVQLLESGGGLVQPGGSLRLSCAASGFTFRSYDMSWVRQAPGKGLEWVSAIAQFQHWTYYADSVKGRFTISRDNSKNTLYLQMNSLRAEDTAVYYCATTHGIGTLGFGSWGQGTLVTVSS VL: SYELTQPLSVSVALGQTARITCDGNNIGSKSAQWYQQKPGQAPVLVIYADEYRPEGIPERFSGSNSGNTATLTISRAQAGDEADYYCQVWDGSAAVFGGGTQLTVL
589

Which value of Amplitude R0 has been reported for g24F02_N53A (human Fab) (Fab, V domains shown, Human Fab backbone: human CH1 and human lambda constant domain (pUPEX vectors); also called g24F02_N53A_2W) VH: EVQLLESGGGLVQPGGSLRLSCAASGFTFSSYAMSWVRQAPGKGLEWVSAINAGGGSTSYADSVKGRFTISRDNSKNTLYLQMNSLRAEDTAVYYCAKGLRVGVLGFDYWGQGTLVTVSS VL: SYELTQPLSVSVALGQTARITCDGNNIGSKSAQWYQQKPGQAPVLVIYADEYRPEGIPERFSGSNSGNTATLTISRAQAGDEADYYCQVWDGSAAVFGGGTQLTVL in the records?
544
